- System: 521955-158-R2-J5-PDC spheroids with stroma, growth inhibition
- protocol: Anticancer human tumor 521955-158-R2-J5-PDC patient-derived pancreatic carcinoma cell line growth inhibition [TAK]
- measurement_parameters: second compound 9.49 µM; first compound 0.01 µM; hits give low values
parameter_measured: viability, T/C (%)
Your answer should be a plain number; it is taken to be in %.

# annotated cases, reported viability, T/C shown
• COc1c(OCCCN2CCOCC2)ccc2c3n(c(=NC(=O)c4cnc(N)nc4)nc12)CCN3 + CC(C)NCC(C(=O)N1CCN(c2ncnc3c2C(C)CC3O)CC1)c1ccc(Cl)cc1 = 16.5
• CC(C)CC(NC(=O)C(Cc1ccccc1)NC(=O)c1cnccn1)B(O)O (stereo not given) + CC(C)NCC(C(=O)N1CCN(c2ncnc3c2C(C)CC3O)CC1)c1ccc(Cl)cc1 = 4.23
• COC1CC2CCC(C)C(O)(O2)C(=O)C(=O)N2CCCCC2C(=O)OC(C(C)CC2CCC(OCCO)C(OC)C2)CC(=O)C(C)C=C(C)C(O)C(OC)C(=O)C(C)CC(C)C=CC=CC=C1C (stereo not given) + CC(C)NCC(C(=O)N1CCN(c2ncnc3c2C(C)CC3O)CC1)c1ccc(Cl)cc1 = 68.3

[Q] Look up and report measured viability, T/C for this entry: CC(C)CC(NC(=O)CNC(=O)c1cc(Cl)ccc1Cl)B1OC(=O)CC(CC(=O)O)(C(=O)O)O1 (stereo not given) + CC(C)NCC(C(=O)N1CCN(c2ncnc3c2C(C)CC3O)CC1)c1ccc(Cl)cc1
[A] 122

[Q] Look up and report measured viability, T/C for this entry: CC(C)n1nc(-c2ccc3oc(N)nc3c2)c2c(N)ncnc21 + CC(C)NCC(C(=O)N1CCN(c2ncnc3c2C(C)CC3O)CC1)c1ccc(Cl)cc1
[A] 44.2

----------
- Tested on: 521955-158-R2-J5-PDC spheroids with stroma, growth inhibition
- protocol: Anticancer human tumor 521955-158-R2-J5-PDC cell line growth inhibition [TAK];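 further: spheroids exposed to drugs for seven days before readout; 100% = DMSO vehicle control viability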
- measurement_parameters: second compound 0.3 µM; first compound 0.1 µM; hits give low values
- Method: Combinatorial screen of targeted agents with TAK-243 and ipatasertib in multi-cell type tumor spheroids […] Compounds. […] If the clinical Cmax for an agent had not been determined, the highest concentration tested was 10 microM. NCI60 Cell Culture. […] The optimal seeding densities for each of the cell lines at each time point assessed were determined prior to performing the concentration response studies. […]
Below, each of the compounds is paired with its reported viability, T/C value.
Your answer should be a plain number; it is taken to be in %.

* CC(C)CC(NC(=O)CNC(=O)c1cc(Cl)ccc1Cl)B1OC(=O)CC(CC(=O)O)(C(=O)O)O1 (stereo unspecified) + CC(C)NCC(C(=O)N1CCN(c2ncnc3c2C(C)CC3O)CC1)c1ccc(Cl)cc1 | 8.82
* Cc1nc(NC(=O)N2CCCC2C(N)=O)sc1-c1ccnc(C(C)(C)C(F)(F)F)c1 (stereo unspecified) + CC(C)NCC(C(=O)N1CCN(c2ncnc3c2C(C)CC3O)CC1)c1ccc(Cl)cc1 | 84.3
* COc1c(OCCCN2CCOCC2)ccc2c3n(c(=NC(=O)c4cnc(N)nc4)nc12)CCN3 + CC(C)NCC(C(=O)N1CCN(c2ncnc3c2C(C)CC3O)CC1)c1ccc(Cl)cc1 | 25.3
* CC(C)(C)c1nc(-c2cccc(NS(=O)(=O)c3c(F)cccc3F)c2F)c(-c2ccnc(N)n2)s1 + CC(C)NCC(C(=O)N1CCN(c2ncnc3c2C(C)CC3O)CC1)c1ccc(Cl)cc1 | 135
* COC1CC2CCC(C)C(O)(O2)C(=O)C(=O)N2CCCCC2C(=O)OC(C(C)CC2CCC(OCCO)C(OC)C2)CC(=O)C(C)C=C(C)C(O)C(OC)C(=O)C(C)CC(C)C=CC=CC=C1C (stereo unspecified) + CC(C)NCC(C(=O)N1CCN(c2ncnc3c2C(C)CC3O)CC1)c1ccc(Cl)cc1 | 65.5

Switching to the query record.
[Q] Print 521955-158-R2-J5-PDC spheroids with stroma, growth inhibition viability, T/C for CC(C)n1nc(-c2ccc3oc(N)nc3c2)c2c(N)ncnc21 + CC(C)NCC(C(=O)N1CCN(c2ncnc3c2C(C)CC3O)CC1)c1ccc(Cl)cc1 .
[A] 36.5
